Would you mind telling me the reported abundance fitness of each entry?
B1: Gamma-crystallin C, residues 91 to 170; numbered along this chain, P07315 (parent)
chain: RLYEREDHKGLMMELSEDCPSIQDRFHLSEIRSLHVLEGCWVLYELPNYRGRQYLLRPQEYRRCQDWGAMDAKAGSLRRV

Variants of: B1
Experiment: abundance fitness (aPCA) (normalised: wild type 0, dead -1); higher = more abundant; growth selection in yeast, the domain comes from the species named
Details: Homo sapiens
Form: value (number only, do not type unit).

Lab note: S29N gave abundance fitness of -0.003

Documented abundance fitness of S29G : -0.118

Lab note: measured abundance fitness of S21R was -0.454

Entry E30R , abundance fitness reported as -0.184

Given item Y49H , the value recorded as its abundance fitness is -0.94

The value of abundance fitness measured for the variant E60I turned out to be -0.219

In plain terms, Q59E has a documented abundance fitness of -0.354

L28P has a reported abundance fitness of -0.864

Per the record, H27L has abundance fitness of -0.18

Per the records, this variant ( M12Q ) has abundance fitness equal to -0.636

The variant listed as E45P shows abundance fitness equal to -0.832

abundance fitness recorded for this variant, R62Y , is -0.252

Lab book: abundance fitness of A72G noted as -0.118

// abundance fitness lookup, variant = R25W , result: -0.134

Looking up E38F , I see its abundance fitness listed as -0.216

# variant E14K ; its abundance fitness = -0.095

Lab note: C40H gave abundance fitness of -0.09

Kindly note the recorded abundance fitness for M12V , which is -0.096

Record K9P , field abundance fitness: -0.728

Entry L77M ; abundance fitness = -0.035

Entry E17Q ; abundance fitness = -0.089

// abundance fitness value for G68A : -0.721

Input S21V . Output abundance fitness: -0.56

abundance fitness measured on A69W = -0.668

Just so you know, measured abundance fitness for P58G came out at -0.744

response.value for E45T (field: abundance fitness) = -0.118

What the record says about S29D : abundance fitness is -0.073

Entry L43P ; abundance fitness = -0.992

// recorded abundance fitness for Q53W : -0.225

abundance fitness for S21Y is -0.762

Lookup result for A74P ; measured abundance fitness: -0.779

Given item R1E , the value recorded as its abundance fitness is -0.756

So, L37W ? Its abundance fitness was -0.799

Input I22A . Output abundance fitness: -0.784

Form: variant = R32I ; abundance fitness = -0.587

variant H35W , abundance fitness observed: -0.354

abundance fitness measured on D7K = -0.578

Value of abundance fitness reported for the variant L28E is -0.451

// sample Y54F , its abundance fitness was -0.118

What the record says about G10Y : abundance fitness is -0.623

Lab note: G75T gave abundance fitness of -0.949

Reported abundance fitness of N48A : -0.348

Looking up L11F , I found its abundance fitness recorded as -0.017

// field: abundance fitness; key: Q65F ; value = -0.248

// sample Q23P , its abundance fitness was -0.127

In plain terms, C40V has a documented abundance fitness of 0.002

The variant R25G showed abundance fitness equal to -0.602

// Q65H : abundance fitness value = -0.242

Noted for R1K : its abundance fitness reads -0.072

Sample C40D ; abundance fitness observed: 0.058

Noted for D24H : its abundance fitness reads -0.087

Just so you know, measured abundance fitness for Y44Q came out at -0.567

Reported abundance fitness ( S33K ) = -0.957

# abundance fitness of E4D = -0.153

// Q59G : abundance fitness value = 0.02

Looking up R32E , I see its abundance fitness listed as -0.478

Entry under test: R63F . Its abundance fitness was -0.574

Note to self: abundance fitness recorded for S29Q was -0.086

// abundance fitness lookup, variant = C40K , result: -0.202

Entry under test: R57C . Its abundance fitness was -0.215

For record G68T the listed abundance fitness is -1.01

So for R1G , the logged abundance fitness turned out to be -0.879

Entry R52T ; abundance fitness = -0.058

Entry under test: E17K . Its abundance fitness was -0.416

abundance fitness for D24E is 0.045

What the record says about Q23M : abundance fitness is -0.033

Value of measured abundance fitness for the entry I31W : -0.848

For this variant ( L37P ), measured abundance fitness is -0.813

In plain terms, Q53N has a documented abundance fitness of 0.005

GET /value?item= Y44S &field=abundance fitness returns -0.568

Reported abundance fitness for L11S was -0.089

// sample C19W , its abundance fitness was -0.807

Lookup result for Y61V ; measured abundance fitness: -1.05

// C19A : abundance fitness value = -0.836

Noted for S21W : its abundance fitness reads -0.904

Record H35K , field abundance fitness: -0.029

Item: S21I | abundance fitness: -0.842

# abundance fitness of A69L = -0.935

Measured abundance fitness of L37Q : -0.256

The reported abundance fitness of the variant F26K was -0.818

response.value for P20G (field: abundance fitness) = -0.394

Summary for this variant, L46T : abundance fitness is -0.863

Value of abundance fitness reported for the variant R52L is -0.219

// recorded abundance fitness for Y54I : -0.395

Lookup result for D18M ; measured abundance fitness: -0.496

Sure, the documented abundance fitness for G51A is -0.833

abundance fitness reported for this variant A74Y : -0.781

Looking up M12G , I found its abundance fitness recorded as -0.286

Field abundance fitness (entry R62N ) reads -0.64

E4S has a reported abundance fitness of -0.027

Form: variant = C19K ; abundance fitness = -0.623
